System: methionyl-tRNA synthetase (Trypanosoma brucei brucei)
Test: T. brucei MetRS aminoacylation inhibitors, late-stage follow-up, counter-screen for T. brucei MetRS inhibitor project, biochemical, radioactivity, assay provider (AID 720623)
Conditions: Recombinant T. brucei MetRS enzyme, [3H]methionine tRNA aminoacylation, filter scintillation, 120 min; inhibition; at 1 µM; stronger effect = higher value
parameter_measured: inhibition (%)

A selection of reference data follows.
molecule: CCOC(=O)N1CCC(Nc2c(Nc3ccc(F)cc3)c(=O)c2=O)CC1
inhibition, %: 28.4
//
molecule: CC(=O)c1c[nH]c(C(=O)NCc2cccc(C(F)(F)F)c2)c1
inhibition, %: 44.6
//
molecule: O=C(NNC(=O)c1cc(-c2ccc(Cl)c(Cl)c2)nc2ccccc12)Nc1ccccc1
inhibition, %: 59.7
//
molecule: COc1ccccc1NS(=O)(=O)c1cccc(NC(=O)Nc2ccccc2)c1
inhibition, %: 57
//
molecule: O=C1CC(SCc2nc3ccccc3[nH]2)C(=O)N1c1cccc(Cl)c1 (stereo not drawn)
inhibition, %: 19.7

[a] O=C(CC=NOCc1ccc([N+](=O)[O-])cc1)Nc1ccc(Br)cc1
[b] O=C(NCc1nc2ccccc2[nH]1)C1=C[C@H](c2ccc(Br)cc2)C[C@H](OCCCCO)O1
QUERY: When a and b are compared, which has the higher number for inhibition? Output the label that corresponds to your choice.
RESULT: b

[1] O=C(NCc1nc2ccccc2[nH]1)C1=C[C@H](C2CC2)C[C@H](OCc2ccc(CO)cc2)O1
[2] O=C(Nc1ccc(F)c(Cl)c1)C1CC(=O)n2c(nc3ccccc32)N1 (stereo not drawn)
QUERY: Lab note: check whether 1 or 2 has the lower measured inhibition. Write the label of whichever entry you select.
RESULT: 1

[1] Cc1[nH]c2ccc(Br)cc2c(=O)c1CN1CCCCCC1
[2] CN(Cc1cc(Cl)cc(Cl)c1)[C@H]1C[C@H]2c3[nH]c4ccccc4c3CCN2C(=O)[C@H]1CO
QUERY: // compare measured inhibition between 1 and 2 ; output the lower one # answer = label of selected item
RESULT: 1

[1] CC(C)OCCCN1CC(=O)N2C(c3cccc([N+](=O)[O-])c3)c3[nH]c4ccccc4c3C[C@H]2C1=O (stereo partly drawn)
[2] O=C(NCc1nc2ccccc2[nH]1)C1=C[C@H](c2ccccc2)C[C@H](OCc2ccc(CO)cc2)O1
[3] C[C@H](O)[C@@H]1C(=O)N2CCc3c([nH]c4ccccc34)[C@@H]2C[C@@H]1N(C)Cc1ccc2c(c1)OCO2
[4] O=C(CC=NOCc1ccc([N+](=O)[O-])cc1)Nc1ccc(Cl)cc1
[5] O=C(CN1CCSC1=NCc1ccccc1)c1ccc(Cl)c(Cl)c1
QUERY: Ascending by inhibition, please: list the molecules accordingly. // rank by listing labels in the order requested
RESULT: 5, 3, 2, 4, 1

[a] CN1CC(=O)N2C(c3cccc([N+](=O)[O-])c3)c3[nH]c4ccccc4c3C[C@H]2C1=O (stereo partly drawn)
[b] CN(CC(=O)Nc1ccc(Cl)cc1)C(=O)c1ccc(-n2cncn2)c([N+](=O)[O-])c1
[c] O=C(CCC(=O)Nc1cccc([N+](=O)[O-])c1)NN=Cc1cccs1
[d] COc1ccccc1-n1c(SCC(=O)Nc2ccc(Cl)cc2)nc(O)c(Cc2ccccc2)c1=O
QUERY: Would you mind ranking these molecules by ascending inhibition? Present the labels in the sequence the task asks for.
RESULT: d, c, b, a
(d: 2.04%, c: 6.25%, b: 38%, a: 57.7%)

[I] O=C(NCc1nc2ccccc2[nH]1)C1=C[C@@H](c2ccc3c(c2)OCO3)C[C@@H](OCCCCO)O1
[II] CC(C)(C)[C@@H]1C=C(C(=O)NCc2nc3ccccc3[nH]2)O[C@H](OCc2ccc(CO)cc2)C1
QUERY: Among I and II , whose measured inhibition is the smaller figure? Refer to your chosen item by its label in the answer.
RESULT: II
(II: 30.8%, I: 50.4%)

[I] O=C(NCc1nc2ccccc2[nH]1)C1=C[C@H](c2csc3ccccc23)C[C@H](OCCCCO)O1
[II] O=C(Cn1cnc2ccccc21)Nc1cccc([N+](=O)[O-])c1
QUERY: Between the two listed entries I and II , which has its inhibition at the higher number? State the label of the item chosen.
RESULT: I
(I: 71.1%, II: 44.9%)

[P] O=C(C[C@H]1C(=O)N(Cc2ccccc2)C[C@@H]1c1ccc(Br)cc1)Nc1ccc(Br)cc1
[Q] CCO[C@@H]1OC(C(=O)NCc2nc3ccccc3[nH]2)=C[C@H](c2ccc(Br)cc2)[C@H]1CCCO
QUERY: // compare measured inhibition between P and Q ; output the lower one Lab log: write the label of the selected item as the result.
RESULT: Q
(Q: 6.72%, P: 55.7%)
